# STUDY_TARGET: CYP2D6 (Homo sapiens, UniProt P10635)
# Sequence (P10635 whole entry): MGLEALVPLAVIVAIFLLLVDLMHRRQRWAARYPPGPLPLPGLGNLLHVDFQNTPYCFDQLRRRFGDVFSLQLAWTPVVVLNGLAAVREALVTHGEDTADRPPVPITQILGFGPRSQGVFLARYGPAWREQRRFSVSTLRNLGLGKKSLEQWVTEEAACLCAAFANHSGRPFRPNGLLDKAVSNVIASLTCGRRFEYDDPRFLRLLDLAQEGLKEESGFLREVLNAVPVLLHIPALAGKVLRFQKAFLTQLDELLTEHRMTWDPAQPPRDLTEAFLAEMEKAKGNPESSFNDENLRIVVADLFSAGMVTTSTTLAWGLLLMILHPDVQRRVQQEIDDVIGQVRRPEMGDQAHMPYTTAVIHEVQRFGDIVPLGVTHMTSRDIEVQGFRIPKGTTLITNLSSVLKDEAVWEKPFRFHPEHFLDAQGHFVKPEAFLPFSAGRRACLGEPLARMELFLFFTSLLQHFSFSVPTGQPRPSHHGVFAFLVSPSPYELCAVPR
EXPERIMENTAL_ENDPOINT: IC50

So what does the record say about IC50 for CCC1OC(=O)C(C)C(O)C(C)C(O)C(C)(O)CC(C)CN(C)C(C)C(O)C1(C)O (stereo not shown) ?
7.89 µM

----------
# ASSAY_SUMMARY: Bidirectional transport in Caco-2 cell monolayer
# Format: in vitro ADME, human
# CONDITION_CONTEXT: human, Caco-2; efflux positive control, (−) without quinidine; n = 3
EXPERIMENTAL_ENDPOINT: Papp B→A (×10⁻⁶ cm/s)
A number alone suffices; assume ×10⁻⁶ cm/s.

Fill blank: measured Papp B→A of the compound COC(=O)c1ccccc1-c1c2ccc(=N)cc-2oc2cc(N)ccc12 [Rhodamine 123, reference compound] is ____.
0.166

----------
# ASSAY_SUMMARY: Bidirectional transport in Caco-2 cell monolayer
# Assay type: in vitro ADME, human
# CONDITION_CONTEXT: human, Caco-2; 10 μM, without quinidine, 37°C 1 h; n = 3
EXPERIMENTAL_ENDPOINT: Papp A→B at 1 h, 10 μM (×10⁻⁶ cm/s)
Answer format: numeric, ×10⁻⁶ cm/s implied, no suffix.

What does the record list as Papp A→B at 1 h, 10 μM for CCC1OC(=O)C(C)C(O)C(C)C(O)C(C)(O)CC(C)CN(C)C(C)C(O)C1(C)O (stereo not shown) ?
0.302

----------
# ASSAY_SUMMARY: Bidirectional transport in Caco-2 cell monolayer
# Format: in vitro ADME, human
# CONDITION_CONTEXT: human, Caco-2; 2 μM, without quinidine; read-out: ER
EXPERIMENTAL_ENDPOINT: efflux ratio at 1 h, 2 μM
# respond with the number and nothing more

Can you look up the measured efflux ratio at 1 h, 2 μM of CCC1OC(=O)C(C)C(O)C(C)C(O)C(C)(O)CC(C)CN(C)C(C)C(O)C1(C)O (stereo not shown) [Deg-AZM, Deglycosylated azithromycin] for me?
16.2

----------
# Test system: P-gp
# Construct: evaluated using Caco-2 cell monolayer both apical-to-basolateral (A-B) and basolateral-to-apical (B-A) directions; endogenous in cells; host or cells: Caco-2
# ASSAY_SUMMARY: Bidirectional transport in Caco-2 cell monolayer with P-gp inhibitor quinidine
# Assay type: in vitro ADME, human
# CONDITION_CONTEXT: human, Caco-2, with quinidine 50 μM; 50 μM, (+) quinidine 50 μM, 37°C 1 h; n = 3
EXPERIMENTAL_ENDPOINT: Papp A→B at 1 h, 50 μM (×10⁻⁶ cm/s)
Give the number; ×10⁻⁶ cm/s is assumed, so skip it.

Item CCC1OC(=O)C(C)C(O)C(C)C(O)C(C)(O)CC(C)CN(C)C(C)C(O)C1(C)O (stereo not shown) has what recorded Papp A→B at 1 h, 50 μM?
0.589

----------
# ASSAY_SUMMARY: Bidirectional transport in Caco-2 cell monolayer
# Format: in vitro ADME, human
# CONDITION_CONTEXT: human, Caco-2; 2 μM, without quinidine, 37°C 1 h; n = 3
EXPERIMENTAL_ENDPOINT: Papp A→B at 1 h, 2 μM (×10⁻⁶ cm/s)
The reply should contain only the number, in ×10⁻⁶ cm/s.

May I ask what Papp A→B at 1 h, 2 μM has been recorded for CCC1OC(=O)C(C)C(O)C(C)C(O)C(C)(O)CC(C)CN(C)C(C)C(O)C1(C)O (stereo not shown) ?
0.326

----------
# Tested on: P-gp
# Construct: evaluated using Caco-2 cell monolayer both apical-to-basolateral (A-B) and basolateral-to-apical (B-A) directions; endogenous in cells; host or cells: Caco-2
# ASSAY_SUMMARY: Bidirectional transport in Caco-2 cell monolayer with P-gp inhibitor quinidine
# Format: in vitro ADME, human
# CONDITION_CONTEXT: human, Caco-2, with quinidine 50 μM; efflux positive control, (+) quinidine; n = 3
EXPERIMENTAL_ENDPOINT: Papp B→A (×10⁻⁶ cm/s)
Express the result in ×10⁻⁶ cm/s but write the number alone.

Returns the measured Papp B→A for the input molecule. Input: COC(=O)c1ccccc1-c1c2ccc(=N)cc-2oc2cc(N)ccc12 [Rhodamine 123, reference compound]
0.0417

----------
# ASSAY_SUMMARY: Bidirectional transport in Caco-2 cell monolayer
# Assay type: in vitro ADME, human
# CONDITION_CONTEXT: human, Caco-2; 50 μM, without quinidine; read-out: ER
# Description: The human colon adenocarcinoma Caco-2 cell line was provided by Institute of Basic Medicine, Chinese Academy of Medical Sciences (Beijing, China). […] Transepithelial electrical resistance (TEER) was used to indicate monolayer integrity. […] After that, the transwell was balanced at 37°C for 20 min and then replaced the HBSS solution with the pre-heated HBSS solution, the TEER value was measured finally. […]
EXPERIMENTAL_ENDPOINT: efflux ratio at 1 h, 50 μM
Write the value as a bare number.

Would you kindly share the measured efflux ratio at 1 h, 50 μM for CCC1OC(=O)C(C)C(O)C(C)C(O)C(C)(O)CC(C)CN(C)C(C)C(O)C1(C)O (stereo not shown) ?
10

----------
# ASSAY_SUMMARY: Bidirectional transport in Caco-2 cell monolayer
# Format: in vitro ADME, human
# CONDITION_CONTEXT: human, Caco-2; 10 μM, without quinidine, 37°C 1 h; n = 3
EXPERIMENTAL_ENDPOINT: Papp B→A at 1 h, 10 μM (×10⁻⁶ cm/s)
Enter your answer as a number in ×10⁻⁶ cm/s; do not include the unit.

Requested field: Papp B→A at 1 h, 10 μM. Item: CCC1OC(=O)C(C)C(O)C(C)C(O)C(C)(O)CC(C)CN(C)C(C)C(O)C1(C)O (stereo not shown)
3.7

----------
# ASSAY_SUMMARY: Bidirectional transport in Caco-2 cell monolayer
# Assay type: in vitro ADME, human
# CONDITION_CONTEXT: human, Caco-2; efflux positive control, (−) without quinidine; read-out: ER
EXPERIMENTAL_ENDPOINT: efflux ratio
I'd appreciate a reply containing only the number, no unit.

Recorded efflux ratio of COC(=O)c1ccccc1-c1c2ccc(=N)cc-2oc2cc(N)ccc12 [Rhodamine 123, reference compound] , please.
53.5

----------
# ASSAY_SUMMARY: Bidirectional transport in Caco-2 cell monolayer
# Assay type: in vitro ADME, human
# CONDITION_CONTEXT: human, Caco-2; 10 μM, without quinidine; read-out: ER
EXPERIMENTAL_ENDPOINT: efflux ratio at 1 h, 10 μM
Please state the value as a number alone, without comment.

Value lookup for efflux ratio at 1 h, 10 μM; key = CCC1OC(=O)C(C)C(O)C(C)C(O)C(C)(O)CC(C)CN(C)C(C)C(O)C1(C)O (stereo not shown)
12.2

----------
# System: P-gp
# Construct: evaluated using Caco-2 cell monolayer both apical-to-basolateral (A-B) and basolateral-to-apical (B-A) directions; endogenous in cells; host or cells: Caco-2
# ASSAY_SUMMARY: Bidirectional transport in Caco-2 cell monolayer with P-gp inhibitor quinidine
# Type: in vitro ADME, human
# CONDITION_CONTEXT: human, Caco-2, with quinidine 50 μM; 2 μM, (+) quinidine 50 μM, 37°C 1 h; n = 3
EXPERIMENTAL_ENDPOINT: Papp A→B at 1 h, 2 μM (×10⁻⁶ cm/s)
Report as a plain number; the unit ×10⁻⁶ cm/s is understood.

GET /values?readout=Papp A→B at 1 h, 2 μM&system=P-gp&item= CCC1OC(=O)C(C)C(O)C(C)C(O)C(C)(O)CC(C)CN(C)C(C)C(O)C1(C)O (stereo not shown) [Deg-AZM, Deglycosylated azithromycin]
0.823

----------
# Tested on: P-gp
# Construct: evaluated using Caco-2 cell monolayer both apical-to-basolateral (A-B) and basolateral-to-apical (B-A) directions; endogenous in cells; host or cells: Caco-2
# ASSAY_SUMMARY: Bidirectional transport in Caco-2 cell monolayer with P-gp inhibitor quinidine
# Type: in vitro ADME, human
# CONDITION_CONTEXT: human, Caco-2, with quinidine 50 μM; 10 μM, (+) quinidine 50 μM, 37°C 1 h; n = 3
EXPERIMENTAL_ENDPOINT: Papp B→A at 1 h, 10 μM (×10⁻⁶ cm/s)
Expressed in ×10⁻⁶ cm/s, but write only the number.

Please state recorded Papp B→A at 1 h, 10 μM (tested on P-gp) of CCC1OC(=O)C(C)C(O)C(C)C(O)C(C)(O)CC(C)CN(C)C(C)C(O)C1(C)O (stereo not shown) [Deg-AZM, Deglycosylated azithromycin]
0.52

----------
# ASSAY_SUMMARY: Bidirectional transport in Caco-2 cell monolayer
# Format: in vitro ADME, human
# CONDITION_CONTEXT: human, Caco-2; 2 μM, without quinidine, 37°C 1 h; n = 3
EXPERIMENTAL_ENDPOINT: Papp B→A at 1 h, 2 μM (×10⁻⁶ cm/s)
Please reply with the bare figure in ×10⁻⁶ cm/s and do not write the unit itself.

For CCC1OC(=O)C(C)C(O)C(C)C(O)C(C)(O)CC(C)CN(C)C(C)C(O)C1(C)O (stereo not shown) [Deg-AZM, Deglycosylated azithromycin] , what is its reported Papp B→A at 1 h, 2 μM?
5.27
